Provenance of the data: ChEMBL document CHEMBL4316658

Would you mind telling me the reported IC50 of each entry?
# Test system: Entamoeba histolytica
# assay-comment: Antiparasitic activity against Entamoeba histolytica HM1-IMSS trophozoites assessed as inhibition of parasitic growth treated for 48 hrs followed by compound washout and measured after 48 hrs by MTT/PMS dye based colorimetric method
# Format: functional, organism-based
# condition-label: HM-1:IMSS
Answers are plain numbers, in µM.

# compound-structure, IC50, µM
records = [
    ("Cc1ncc([N+](=O)[O-])n1CCO", 0.2),
    ("COc1c(C(C)C)cc2c(c1O)[C@]13CCC[C@](C)([C@H](OC(C)=O)OC1=O)[C@@H]3CC2", 34.9),
    ("CC(C)c1cc2c(c(O)c1O)[C@]13CCC[C@](C)([C@H](O)OC1=O)[C@@H]3CC2", 37.8),
    ("CC(=O)Oc1c(C(C)C)cc2c(c1OC(C)=O)[C@]13CCC[C@](C)([C@H](OC(C)=O)OC1=O)[C@@H]3CC2", 39.5),
    ("COC(=O)[C@]12CCC[C@](C)(C=O)[C@@H]1CCc1cc(C(C)C)c(OC)c(O)c12", 48.5),
]

For every item below, please supply its IC50.
1. CC(C)c1cc2c(c(O)c1O)[C@]13CCC[C@](C)(COC1=O)[C@@H]3CC2
2. COc1c(C(C)C)cc2c(c1O)[C@]13CCC[C@](C)([C@H](O)OC1=O)[C@@H]3CC2

A.
[31.3, 43]
